All figures here come from patent US20260242478A1.

Known Phage binding ELISA signal, Anti-PSMA Fab of a selection of binders
# test target: T1, PSMA Fab (006 PSMA Fab)
# T1 construct: also called Anti-PSMA Fab; anti-PSMA Fab
# test summary: clonal phage ELISA; biotinylated PSMA Fab on neutravidin plate, blocking buffer alone; anti-M13-HRP detection;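 further: clonal phage applied as crude supernatants to wells preincubated with blocking buffer, binding read by ELISA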
Where no end group is shown, it is not given here.
quantity measured: Phage binding ELISA signal, Anti-PSMA Fab

> print(dat)
                                     binder  value.reported
1               MEQWCIPQWMCSGF [Phage-2317]            1.46
2               LEKWCTPVWMCEGV [Phage-2318]            1.46
3  LEKWCMPPWMCSGT (cysteine pairing not given here; also: displayed on bacteriophage by fusion to pIII) [Phage-2313]            1.47
4  EARWCTPPWMCAYM (cysteine pairing not given here; also: displayed on bacteriophage by fusion to pIII) [Phage-2315]            1.47
5               SVHWCTPPWMCQGF [Phage-2327]            1.45
6               SDNWCKPKWMCETI [Phage-2319]            1.45
